SUBJECT OF TEST: SARS-COV-2 RBD-MMH (SARS-CoV-2)
ASSAY OVERVIEW: SPR 37C, run with dissociation at pH 7.4
READOUT NAME: RBD.mmh Bound at pH 7.4 (RU)
Your reply should be a number followed by the unit it is expressed in.

RBD.mmh Bound at pH 7.4 (RU) lookup needed for mAb15166 (antibody, V domains shown) VH: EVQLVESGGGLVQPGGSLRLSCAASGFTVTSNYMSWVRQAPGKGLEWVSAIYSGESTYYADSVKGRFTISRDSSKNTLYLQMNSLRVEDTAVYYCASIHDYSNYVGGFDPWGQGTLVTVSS VL: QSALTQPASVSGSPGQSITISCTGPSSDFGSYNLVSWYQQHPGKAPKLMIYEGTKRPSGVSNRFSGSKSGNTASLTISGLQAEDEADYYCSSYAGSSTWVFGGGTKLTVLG , thanks.
65.2 RU
